Would you kindly list Ki for each of these compounds?
molecular target: UniProtKB P41145
Sequence (P41145 whole entry): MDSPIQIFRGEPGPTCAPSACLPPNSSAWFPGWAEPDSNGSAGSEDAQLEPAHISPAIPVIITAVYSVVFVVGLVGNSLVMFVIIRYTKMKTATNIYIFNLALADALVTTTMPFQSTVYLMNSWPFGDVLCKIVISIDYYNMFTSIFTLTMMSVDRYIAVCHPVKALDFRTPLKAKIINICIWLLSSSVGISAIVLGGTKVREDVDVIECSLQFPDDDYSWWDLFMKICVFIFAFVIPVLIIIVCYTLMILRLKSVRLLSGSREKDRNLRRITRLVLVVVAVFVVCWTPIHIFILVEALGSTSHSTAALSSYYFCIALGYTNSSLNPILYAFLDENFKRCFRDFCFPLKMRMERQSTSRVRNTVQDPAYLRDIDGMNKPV
Answers are plain numbers, in µM.

- CHEMICAL_STRING: "C/C=C1/CN2CC[C@]34C(=Nc5ccccc53)[C@@H]2C[C@@H]1[C@@]4(COC(C)=O)C(=O)OC"
  UNIT_STRING: "µM"
  Ki: 0.4

Please examine the following record next.
Exam item: I am curious: what Ki value has been reported for `C/C=C1/CN2CC[C@]34C(=C(C(=O)OC)[C@H]1C[C@H]23)Nc1ccccc14` ?
Marked response: 0.17

---

For each record, write down the corresponding Kbase.
assay: Partition coefficients of akuamma alkaloids in CCS solvent systems; assay type: physicochemical; details: 1:1 EtOAc/H2O, 10 mM TEA
One number for each entry.

Hi! Can you tell me Kbase for each of these molecules?
1. C/C=C1/CN2CC[C@]34C(=Nc5ccccc53)[C@@H]2C[C@@H]1[C@@]4(COC(C)=O)C(=O)OC
2. C/C=C1/CN2CC[C@]34C(=C(C(=O)OC)[C@H]1C[C@H]23)Nc1ccccc14
3. C/C=C1/CN2CC[C@@]34c5ccccc5N(C)[C@]35OC[C@@]4(C(=O)OC)[C@H]1C[C@H]25
4. C/C=C1/CN2[C@@H]3C[C@@]45c6ccccc6N[C@]4(O3)[C@@H]2C[C@@H]1[C@@]5(COC(C)=O)C(=O)OC

Marked response:
[28.2, 222, 51.9, 16.09]

Data provenance: paper PMC7932029
